Data origin, for the record: ChEMBL document CHEMBL2218924

Biological target: Dual specificity mitogen-activated protein kinase kinase 7 (Homo sapiens) (UniProt O14733)
Sequence (whole entry): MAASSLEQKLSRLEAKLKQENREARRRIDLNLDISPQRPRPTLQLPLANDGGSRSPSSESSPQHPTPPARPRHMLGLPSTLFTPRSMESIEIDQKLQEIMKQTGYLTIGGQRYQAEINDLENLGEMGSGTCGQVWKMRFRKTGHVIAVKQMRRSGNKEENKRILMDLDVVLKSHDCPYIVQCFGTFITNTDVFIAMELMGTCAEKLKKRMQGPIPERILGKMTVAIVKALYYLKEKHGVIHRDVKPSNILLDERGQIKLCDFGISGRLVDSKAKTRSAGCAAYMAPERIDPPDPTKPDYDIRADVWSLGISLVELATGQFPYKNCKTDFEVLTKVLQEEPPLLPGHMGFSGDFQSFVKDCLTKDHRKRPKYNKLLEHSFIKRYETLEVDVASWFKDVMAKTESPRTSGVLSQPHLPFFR
Conditions: at 1 µM
Readings of residual activity for the listed compounds
The answer is to be given in %; state only the numeric part.

{"columns": ["test_smiles", "study_target", "value"],
 "data": [
  ["CCOc1cc2ncnc(Nc3cccc(Br)c3)c2cc1OCC", "Dual specificity mitogen-activated protein kinase kinase 7 (Homo sapiens) (UniProt O14733)", 91],
  ["O=c1c2ccccc2[nH]c(=S)n1CCN1CCC(=C(c2ccc(F)cc2)c2ccc(F)cc2)CC1", "Dual specificity mitogen-activated protein kinase kinase 7 (Homo sapiens) (UniProt O14733)", 82],
  ["O=C(Nc1cccc(Nc2cc(Nc3cccc(C(F)(F)F)c3)ncn2)c1)C1CC1", "Dual specificity mitogen-activated protein kinase kinase 7 (Homo sapiens) (UniProt O14733)", 104],
  ["COc1cc2ncnc(Nc3ccc(Oc4ccccc4)cc3)c2cc1OC", "Dual specificity mitogen-activated protein kinase kinase 7 (Homo sapiens) (UniProt O14733)", 87],
  ["O=Nc1c(-c2c(O)[nH]c3ccccc23)[nH]c2ccccc12", "Dual specificity mitogen-activated protein kinase kinase 7 (Homo sapiens) (UniProt O14733)", 52],
  ["CC#CC(=O)Nc1cc2c(Nc3ccc(F)c(Cl)c3)ncnc2cn1", "Dual specificity mitogen-activated protein kinase kinase 7 (Homo sapiens) (UniProt O14733)", 97]
]}

Return value of residual activity for input N#CC(C#N)=C(N)/C(C#N)=C/c1ccc(O)cc1 , no commentary.
94
